assay: physchem; conditions: 25 °C, water
quantity: solubility (mg/mL)
API: value field is a number in mg/mL; no unit string.

[
  {
    "compound": "O=Cc1ccc(O)cc1 [4-HBA, 4-hydroxybenzaldehyde]",
    "quantity": "solubility",
    "measured.number": 2.5
  }
]

Req: Reported solubility for Oc1ccc(O)cc1 [HQ, hydroquinone] : what is it?
Resp: 20

* * *

experiment: physchem; details: dimethylsulfoxide (DMSO), 25 °C, organic solvent or mixture
quantity: solubility (mg/mL)
API: value field is a number in mg/mL; no unit string.

Req: Reported solubility for `O=Cc1ccc(C(=O)O)cc1` : what is it?
Resp: 1000

Reference for the values: patent US7714173B2
